System: PA14 4.13 (phoQ)
COND: Table S3; […] MH at pH 8.5
Where a SMILES comes first, the peptide text is derived from it. [ ]: non-standard residue; d: D form. Nleu = CC(C)CNCC(=O)O; Nlys = NCCCCNCC(=O)O

{"COMPOUND": "CC(C)CN(CC(N)=O)C(=O)CN(CC(C)C)C(=O)CN(CC(C)C)C(=O)[C@H](CCCCN)NC(=O)CN(CC(C)C)C(=O)CN(CC(C)C)C(=O)[C@H](CCCCN)NC(=O)CN(CC(C)C)C(=O)CN(CC(C)C)C(=O)[C@H](CCCCN)NC(=O)[C@@H](N)CCCCN [EB8, KKllKllKlll] (H-KK[Nleu][Nleu]K[Nleu][Nleu]K[Nleu][Nleu][Nleu]-NH2)", "MIC P. aeruginosa PA14 4.13": "16 to 32 µg/mL"}
{"COMPOUND": "CC(C)C[C@H](NC(=O)[C@H](CC(C)C)NC(=O)[C@H](CCCCN)NC(=O)[C@@H](N)CCCCN)C(=O)N[C@@H](CCCCN)C(=O)N[C@@H](CC(C)C)C(=O)N[C@@H](CC(C)C)C(=O)N[C@@H](CCCCN)C(=O)N(CC(=O)N(CC(=O)N(CC(N)=O)CC(C)C)CC(C)C)CC(C)C [EB3] (H-KKLLKLLK[Nleu][Nleu][Nleu]-NH2)", "MIC P. aeruginosa PA14 4.13": "4 to 8 µg/mL"}
{"COMPOUND": "CC(C)C[C@H](NC(=O)[C@H](CC(C)C)NC(=O)[C@H](CC(C)C)NC(=O)[C@@H](CCCCN)NC(=O)[C@H](CC(C)C)NC(=O)[C@H](CC(C)C)NC(=O)[C@@H](CCCCN)NC(=O)[C@H](CC(C)C)NC(=O)[C@H](CC(C)C)NC(=O)[C@@H](CCCCN)NC(=O)[C@H](N)CCCCN)C(N)=O [ln69, kkLLkLLkLLL, reference compound] (H-[dK][dK]LL[dK]LL[dK]LLL-NH2)", "MIC P. aeruginosa PA14 4.13": "2 to 4 µg/mL"}
{"COMPOUND": "CC(C)CN(CC(N)=O)C(=O)CN(CC(C)C)C(=O)CN(CC(C)C)C(=O)CN(CCCCN)C(=O)CN(CC(C)C)C(=O)CN(CC(C)C)C(=O)CN(CCCCN)C(=O)CN(CC(C)C)C(=O)CN(CC(C)C)C(=O)CN(CCCCN)C(=O)CNCCCCN [EB11, kkllkllklll] (H-[Nlys][Nlys][Nleu][Nleu][Nlys][Nleu][Nleu][Nlys][Nleu][Nleu][Nleu]-NH2)", "MIC P. aeruginosa PA14 4.13": "4 to 8 µg/mL"}
